Tested on: MCF7
Assay: Cytotoxicity against Homo sapiens (human) MCF-7 cells after 48 hr by SRB assay relative to control
Assay type: functional, cell-based
Settings: MCF7, 48 h
quantity: IC50 (µM)
Express the result in µM but write the number alone.

Please review the following examples before continuing.
[
  {
    "molecule": "CC1(C)CC(=O)C2=C(C1)N(c1ccc(S(N)(=O)=O)cc1)C(N)=C(C1=NCCN1)C2c1ccc(F)cc1 (configuration not stated)",
    "quantity": "IC50",
    "observed_value": 87
  },
  {
    "molecule": "CCO/C=N/C1=C(C#N)C(c2ccc(F)cc2)C2=C(CC(C)(C)CC2=O)N1c1ccc(S(N)(=O)=O)cc1 (configuration not stated)",
    "quantity": "IC50",
    "observed_value": 67.3
  }
]

stdin: For CC1(C)CC(=O)C2=C(C1)N(c1ccc(S(N)(=O)=O)cc1)C(N1C(=O)CCC1=O)=C(C#N)C2c1ccc(F)cc1 (configuration not stated) , what is its reported IC50?
stdout: 94.1

stdin: For CC1(C)CC(=O)C2=C(C1)N(c1ccc(S(N)(=O)=O)cc1)c1ncnc(N)c1C2c1ccc(F)cc1 (configuration not stated) , what is its reported IC50?
stdout: 52.6

###

System: MCF7
Experiment: Cytotoxicity against Homo sapiens (human) MCF-7 cells after 48 hr by SRB assay relative to control
Format: functional, cell-based
Details: MCF7, 48 h
quantity: IC50

[
  {
    "compound": "CC(=O)CC(=O)NC1=C(C#N)C(c2ccc(F)cc2)C2=C(CC(C)(C)CC2=O)N1c1ccc(S(N)(=O)=O)cc1 (stereo not drawn)",
    "IC50": "> 100 µM"
  },
  {
    "compound": "CCOC(=O)Cn1cnc2c(c1=O)C(c1ccc(F)cc1)C1=C(CC(C)(C)CC1=O)N2c1ccc(S(N)(=O)=O)cc1 (stereo not drawn)",
    "IC50": "> 100 µM"
  }
]

Please examine the following record next.
stdin: Entry CC1(C)CC(=O)C2=C(C1)N(c1ccc(S(N)(=O)=O)cc1)c1nc[nH]c(=S)c1C2c1ccc(F)cc1 (stereo not drawn) , system MCF7: what IC50 was measured?
stdout: > 100 µM
